# Assay protocol: amyloid nucleation score (Sup35N fusion, yeast selection) (log enrichment); library NNK2; higher = more nucleation; inactive = no reads after selection;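 further: zero at mode of non-aggregating sequences after 7 days selection at 30°C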
Values of amyloid nucleation score greater than or equal to 1 map to label 1; values below map to label 0.

Example cases with answers are listed next.
{"Substance": "AKKLMSWEAVVLWGASRCVT", "Cat": "label 1"}
{"Substance": "MSYVLMVFASPIMYVTHPIA", "Cat": "label 1"}
{"Substance": "LVFNVLNRFKSARSSRCAGS", "Cat": "label 0"}
{"Substance": "ARCIQVMVIGISWRVGCMPT", "Cat": "label 0"}
{"Substance": "YFELNLNVKRRGGKWYYSLI", "Cat": "label 1"}

[ask] Confirm if amyloid nucleation score reported for the substance `SAGFCFNNCFVFASGDYVNR` is 1 or above.
[reply] label 1

[ask] Confirm if amyloid nucleation score reported for the substance `VLNIFVT` is 1 or above.
[reply] label 1

[ask] Please check the record `ANQDGNCFGFISVGSQLSLM` and state if its amyloid nucleation score is at or above 1.
[reply] label 0
